# Assay Info: brain penetrance and pharmacokinetics after IV administration in rat
# Type: in vivo
# Measurement Conditions: brain; rat; 5 mg/kg IV bolus dose
Measure: Cmax

Query :: What value of measured Cmax is listed for COc1ccc(Cl)cc1[C@]1(F)C(=O)Nc2cc(C(F)(F)F)ccc21 [BMS-204352] ?
Result :: > 10000 ng/g

* * *

# Assay Info: brain penetrance and pharmacokinetics after IV administration in rat
# Format: in vivo
# Measurement Conditions: 5 mg/kg; rat brain; IV administration
Measure: Tmax (min)
I only need the number, in min, no unit after it.

Query :: What value of measured Tmax is listed for COc1ccc(Cl)cc1[C@]1(F)C(=O)Nc2cc(C(F)(F)F)ccc21 [BMS-204352] ?
Result :: 15
